experiment: in vitro; conditions: human, Caco-2
# CC50 listing for each entry below
measurement name: CC50

>  <sample smiles>
C[C@@H]1CN(Cc2ccc(F)cc2)[C@@H](C)CN1C(=O)c1cc2c(C(=O)C(=O)N(C)C)cn(C)c2cc1Cl

>  <observed>
> 20 µM

$$$$
>  <sample smiles>
CNS(=O)(=O)Nc1nccc(Cc2c(C)c3ccc(Oc4ncccn4)cc3oc2=O)c1F

>  <observed>
> 20 µM

$$$$
>  <sample smiles>
CCC(CC)COC(=O)[C@H](C)N[P@](=O)(OC[C@H]1O[C@@](C#N)(c2ccc3c(N)ncnn23)[C@H](O)[C@@H]1O)Oc1ccccc1

>  <observed>
> 20 µM

$$$$
>  <sample smiles>
CC[C@H]1CN2CCc3cc(OC)c(OC)cc3[C@@H]2C[C@@H]1C[C@H]1NCCc2cc(OC)c(OC)cc21

>  <observed>
1.13 µM

$$$$
